These measurements were taken from patent US7575930B2.

# method: Monitoring of the plasma concentration of the main oligosaccharides of a VLMWH in human volunteers (plasma filtration + anion-exchange HPLC)
# Assay type: in vivo
# condition-info: 0.25 h after administration of VLMWH (2500 Da) 1.4 mg/kg
Kindly supply the reported plasma concentration values for the records listed here.
Give bare numbers, in nM.

- molecule: "O=C(O)C1=CC(O)C(OS(=O)(=O)O)C(OC2C(COS(=O)(=O)O)OC(OC3C(C(=O)O)OC(OC4C(COS(=O)(=O)O)OC(OC5C(C(=O)O)OC(OC6C(COS(=O)(=O)O)OC(O)C(NS(=O)(=O)O)C6O)C(OS(=O)(=O)O)C5O)C(NS(=O)(=O)O)C4O)C(OS(=O)(=O)O)C3O)C(NS(=O)(=O)O)C2O)O1 (centres unmarked)"
  unit-abbrev: "nM"
  plasma concentration: 20
- molecule: "O=C(O)C1=CC(O)C(OS(=O)(=O)O)C(OC2C(COS(=O)(=O)O)OC(OC3C(C(=O)O)OC(OC4C(COS(=O)(=O)O)OC(O)C(NS(=O)(=O)O)C4O)C(OS(=O)(=O)O)C3O)C(NS(=O)(=O)O)C2O)O1 (centres unmarked)"
  unit-abbrev: "nM"
  plasma concentration: 160
- molecule: "CC(=O)NC1C(OC2C(C(=O)O)OC(OC3C(COS(=O)(=O)O)OC(OC4C(C(=O)O)OC(OC5C(COS(=O)(=O)O)OC(OC6C(C(=O)O)OC(OC7C(COS(=O)(=O)O)OC(O)C(NS(=O)(=O)O)C7O)C(OS(=O)(=O)O)C6O)C(NS(=O)(=O)O)C5O)C(OS(=O)(=O)O)C4O)C(NS(=O)(=O)O)C3OS(=O)(=O)O)C(O)C2O)OC(COS(=O)(=O)O)C(OC2OC(C(=O)O)=CC(O)C2O)C1O (centres unmarked)"
  unit-abbrev: "nM"
  plasma concentration: 10
- molecule: "O=C(O)C1=CC(O)C(OS(=O)(=O)O)C(OC2C(COS(=O)(=O)O)OC(O)C(NS(=O)(=O)O)C2O)O1 (centres unmarked)"
  unit-abbrev: "nM"
  plasma concentration: 240

Please look at the following molecule next.
Please report the measured plasma concentration for CC(=O)NC1C(OC2C(C(=O)O)OC(OC3C(COS(=O)(=O)O)OC(OC4C(C(=O)O)OC(OC5C(COS(=O)(=O)O)OC(O)C(NS(=O)(=O)O)C5O)C(OS(=O)(=O)O)C4O)C(NS(=O)(=O)O)C3OS(=O)(=O)O)C(O)C2O)OC(COS(=O)(=O)O)C(OC2OC(C(=O)O)=CC(O)C2O)C1O (centres unmarked)
50
